Data origin: PubChem BioAssay (NCI)

system: U251 CNS; assay: NCI tumour cell line growth inhibition, 48 h
Assign TGI to each entry below.

Which value of TGI has been reported for CCCCCCc1cc(C(=O)Nc2cccc(C(F)(F)F)c2)nc(N)n1 in the records?
> 100 µM

Which value of TGI has been reported for CSc1nc(N)c(NC2OC(CO)C(O)C2O)c(=O)[nH]1 (stereo not given) in the records?
> 100 µM

Which value of TGI has been reported for N#C/C(=C\c1c(-c2ccccc2)[nH]c2ccccc12)S(=O)(=O)c1ccccc1 in the records?
20.1 µM

Which value of TGI has been reported for N/C(=N\N=C\c1ccc(-c2ccccc2)cc1)N[N+](=O)[O-] in the records?
> 100 µM

Which value of TGI has been reported for Cc1cc(N/N=C/c2nc(-c3ccc(Br)cc3)oc2C)c2cc(Cl)ccc2n1 in the records?
> 100 µM

----------
system: MOLT-4 leukemia; experiment: NCI tumour cell line growth inhibition, 48 h
measurement label: TGI

Which value of TGI has been reported for CCCCCCNC(=O)c1cnc(Cl)cn1 in the records?
23.2 µM

Which value of TGI has been reported for Cc1cc2c(C)n(Cc3ccc(Cl)cc3Cl)nc2c(C#N)c1C in the records?
> 100 µM

Which value of TGI has been reported for COc1c2c(cc3oc(C)cc(=O)c13)OC(=N)C(C(N)=O)C2CC(=O)c1ccc(N)cc1 (stereo unspecified) in the records?
> 100 µM

Which value of TGI has been reported for CN(C)c1ccc(N=Nc2ccc3nc[nH]c3c2)cc1 in the records?
> 100 µM

Which value of TGI has been reported for CC(CN1CCN(CCOCCO)CC1)CN1c2ccccc2Sc2ccc(Cl)cc21 (stereo unspecified) in the records?
6.54 µM

Which value of TGI has been reported for COc1cc(/C=C2/CCS(=O)(=O)c3ccc(C)cc3C2=O)cc(OC)c1OC in the records?
> 100 µM

Which value of TGI has been reported for C=CC(=O)N(C)[C@H]1C[C@H]2OC(C)(C1OC)n1c3ccccc3c3c4c(c5c6ccccc6n2c5c31)C(=O)NC4 (stereo partly specified) in the records?
0.899 µM

Which value of TGI has been reported for CCC1(CC)CC(=NNS(=O)(=O)c2ccc(C)cc2)C1 in the records?
> 100 µM

Which value of TGI has been reported for CN(/N=C(\C(=O)O)c1ccccc1)C1=NCCCN1 in the records?
> 100 µM

Which value of TGI has been reported for CC1=C(N2CC2)C(=O)c2nc3n(c2C1=O)CCC3OC(=O)CCl (stereo unspecified) in the records?
5.89 µM

Which value of TGI has been reported for c1ccc2c(c1)c(NCCCCN1CCCCC1)cc1c3ccccc3c(NCCCCN3CCCCC3)cc21 in the records?
> 100 µM

----------
Assign TGI to each entry below.
test system: SK-MEL-5 melanoma; experiment: NCI tumour cell line growth inhibition, 48 h

Which value of TGI has been reported for N/C(=N\N=C\c1ccc(-c2ccccc2)cc1)N[N+](=O)[O-] in the records?
> 100 µM

Which value of TGI has been reported for COC(=O)c1ccc2c(O)c(O)ccc2c1 in the records?
8.58 µM

Which value of TGI has been reported for CCOC1(COP(=O)(OCc2ccccc2)OCc2ccccc2)COC(COP(=O)(OCc2ccccc2)OCc2ccccc2)(OCC)CO1 (stereo unspecified) in the records?
> 100 µM

Which value of TGI has been reported for CN(C)CCCNC(=O)N/N=C/c1cccc([N+](=O)[O-])c1 in the records?
> 100 µM

Which value of TGI has been reported for CCOC(=O)/C(C(=S)Nc1ccccc1)=C(/N)N1CCCC1 in the records?
> 100 µM

Which value of TGI has been reported for CCN(C(=O)N1CCN(c2cc3c(cc2F)c(=O)c(C(=O)O)cn3C2CC2)CC1)c1nc(-c2ccc(C)cc2)cs1 in the records?
> 100 µM

Which value of TGI has been reported for CC1=C(N2CC2)C(=O)c2nc3n(c2C1=O)CCC3OC(=O)CCl (stereo unspecified) in the records?
0.0893 µM

Which value of TGI has been reported for COc1ccc2[nH]c3c(c2c1)CCn1c-3nc2ccccc2c1=O in the records?
> 25 µM

Which value of TGI has been reported for CCCCCCCCCCCC(=O)OCCOCCOCCOCCOCCOCc1ccc(OC)cc1 in the records?
> 100 µM

Which value of TGI has been reported for CC1(C)CS(=O)(=O)CC(C)(C)C(=N/N)/C1=N\N in the records?
> 100 µM

Which value of TGI has been reported for C/C(=N\Nc1nc2ccccc2s1)c1ncccn1 in the records?
0.219 µM

Which value of TGI has been reported for O=[N+]([O-])/C=C1\COCc2cc3c(cc21)OCO3 in the records?
39.9 µM

Which value of TGI has been reported for CC1=C2C(=O)c3ccccc3C(=O)[C@H]2[C@H]2CCO[C@H]2O1 in the records?
30.8 µM

Which value of TGI has been reported for CC1C(c2ccccc2)OP(=O)(OC(C#N)c2ccccc2)N1C (stereo unspecified) in the records?
> 100 µM

Which value of TGI has been reported for CC1=NN(c2ccccc2)C(=O)/C1=C/c1ccc(O)cc1 in the records?
> 100 µM

Which value of TGI has been reported for O=C(N/N=C/c1ccc2c(c1)CCC2)c1ccccc1O in the records?
> 100 µM

Which value of TGI has been reported for COc1ccc(N2C(=O)C3c4[nH]c5c(C)cccc5c4C4CCC(C(C)(C)C)CC4C3C2=O)cc1 (stereo unspecified) in the records?
> 10 µM

Which value of TGI has been reported for C=Cc1c(C)c(OC)cc2c1Oc1ccc(OC)c(C)c1CC2 in the records?
> 100 µM

Which value of TGI has been reported for COc1ccc(OC)c(NC(=O)CCC/C(CC(=O)c2ccc(O)c(OC)c2)=N\NC(=O)C[N+](C)(C)C)c1 in the records?
> 100 µM

Which value of TGI has been reported for CNC(=O)OCc1c(COC(=O)NC)c(C)n(-c2ccc(Br)cc2)c1C in the records?
28.1 µM

Which value of TGI has been reported for CCCCNCC(=O)O[C@]1(CC)C(=O)OCc2c1cc1n(c2=O)Cc2cc3ccccc3nc2-1 in the records?
1.27 µM
